# Measured On: Casein kinase I isoform gamma-2 (Homo sapiens)
Measured ΔTm, listed per entry.
Metric Name: ΔTm (°C)

INSERT INTO measurements (molecular_string, data_value) VALUES
  ('COc1cccc(-c2cc(=O)c3ccccc3o2)c1N', 0.5),
  ('CC(=O)O/N=C1/C(=C2/C(=O)Nc3cc(Br)ccc32)Nc2ccccc21', 0.5),
  ('Cc1cc2ncc(-c3ccccc3)nc2cc1C', 0.5),
  ('CN(C)c1ncnc2nc[nH]c12', 0.5),
  ('Ic1cccc(CSc2nnc(-c3ccncc3)o2)c1', 0.5),
  ('Cc1cc(C=C2C(=O)C=CC2=O)cc(C)c1O', 0.5),
  ('CC(C)(C)c1cc(C=C2C(=O)C=CC2=O)cc(C(C)(C)C)c1O', 0.5),
  ('C/C(O)=C(\C#N)C(=O)Nc1cc(Br)ccc1Br', 0.4),
  ('CC(C)(C)n1nc(-c2cccc3ccccc23)c2c(N)ncnc21', 0.5),
  ('CCCCc1c(-c2ccc(O)cc2)[nH]c2nccnc12', 2.2),
  ('CCOC(=O)c1cnc2oc3ccc(O)cc3c2c1-c1ccccc1', 1.1),
  ('CCOc1ccc(/C=C2/SC(=O)N(CCN)C2=O)cc1', 0.6),
  ('Nc1ncnc2c1c(I)cn2[C@@H]1O[C@H](CO)[C@@H](O)[C@H]1O', 3.7),
  ('Nc1nccc(-c2c(-c3ccc(F)cc3)ncn2C2CCNCC2)n1', 2),
  ('Oc1ccc(-c2nc(-c3ccc(F)cc3)c(-c3ccncc3)[nH]2)cc1', 0.8);

* * *

# Measured On: Serine/threonine-protein kinase 10 (Homo sapiens)
Lab note - cut at 1 °C for ΔTm: condition met if strictly below, condition not met if not.

INSERT INTO results (compound, measured_on, group_label) VALUES
  ('CCN(CC)CCNC(=O)c1c(C)[nH]c(/C=C2\C(=O)Nc3ccc(Cl)cc32)c1C [SU-11652]', 'Serine/threonine-protein kinase 10 (Homo sapiens)', 'condition not met'),
  ('CC(C)N(CCO)c1nc(Nc2cccc(Cl)c2)c2ncn(C(C)C)c2n1', 'Serine/threonine-protein kinase 10 (Homo sapiens)', 'condition not met'),
  ('O=C(Nc1cccc(Nc2cc(Nc3cccc(C(F)(F)F)c3)ncn2)c1)C1CC1', 'Serine/threonine-protein kinase 10 (Homo sapiens)', 'condition met'),
  ('O=C1Cc2c([nH]c3ccc(Br)cc23)-c2ccccc2N1 [KENPAULLONE]', 'Serine/threonine-protein kinase 10 (Homo sapiens)', 'condition not met'),
  ('COc1ccc(CNC(=O)Nc2ncc([N+](=O)[O-])s2)cc1', 'Serine/threonine-protein kinase 10 (Homo sapiens)', 'condition not met'),
  ('Cn1cnc2c(NCc3ccccc3)nc(NCCO)nc21 [OLOMOUCINE]', 'Serine/threonine-protein kinase 10 (Homo sapiens)', 'condition met'),
  ('Cc1c2ccncc2c(C)c2c1[nH]c1ccccc12 [ELLIPTECINE]', 'Serine/threonine-protein kinase 10 (Homo sapiens)', 'condition not met'),
  ('Cl.Cn1cc(C2=C(c3ccc4cc5n(c4c3)CCC(CN)C5)C(=O)NC2=O)c2ccccc21 (centres undefined)', 'Serine/threonine-protein kinase 10 (Homo sapiens)', 'condition not met'),
  ('CCOc1ccc(/C=C2/SC(=O)N(CCN)C2=O)cc1 [HIAZOLIDINEDIONE1]', 'Serine/threonine-protein kinase 10 (Homo sapiens)', 'condition met'),
  ('NC(=O)c1ccc2[nH]c(-c3ccc(Oc4ccc(Cl)cc4)cc3)nc2c1', 'Serine/threonine-protein kinase 10 (Homo sapiens)', 'condition met'),
  ('O=C1Cc2c([nH]c3ccc([N+](=O)[O-])cc23)-c2ccccc2N1', 'Serine/threonine-protein kinase 10 (Homo sapiens)', 'condition not met'),
  ('NCCNS(=O)(=O)c1cccc2c(Cl)cccc12', 'Serine/threonine-protein kinase 10 (Homo sapiens)', 'condition met'),
  ('CN(C)c1ccc(CC2C(=O)Nc3ccccc32)cc1 (centres undefined)', 'Serine/threonine-protein kinase 10 (Homo sapiens)', 'condition met'),
  ('CC(=O)O/N=C1/C(=C2/C(=O)Nc3cc(Br)ccc32)Nc2ccccc21 [6-BROMOINDIRUBIN-3''-ACETOXIME]', 'Serine/threonine-protein kinase 10 (Homo sapiens)', 'condition met');

* * *

# Measured On: Calcium/calmodulin-dependent protein kinase type 1G (Homo sapiens) (UniProt Q96NX5)
# Sequence (Q96NX5 whole entry): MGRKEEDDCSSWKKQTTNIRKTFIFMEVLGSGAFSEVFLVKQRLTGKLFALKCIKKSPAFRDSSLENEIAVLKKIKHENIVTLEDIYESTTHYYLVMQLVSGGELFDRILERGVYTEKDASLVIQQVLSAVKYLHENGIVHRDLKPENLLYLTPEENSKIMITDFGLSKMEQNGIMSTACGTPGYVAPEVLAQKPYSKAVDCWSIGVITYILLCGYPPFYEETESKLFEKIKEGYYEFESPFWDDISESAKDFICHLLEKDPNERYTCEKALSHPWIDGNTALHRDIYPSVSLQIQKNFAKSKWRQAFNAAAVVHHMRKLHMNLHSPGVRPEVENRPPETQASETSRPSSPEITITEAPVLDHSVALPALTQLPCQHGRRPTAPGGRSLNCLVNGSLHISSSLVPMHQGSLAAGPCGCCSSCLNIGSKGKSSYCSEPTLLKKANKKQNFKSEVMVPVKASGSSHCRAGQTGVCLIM
Measured ΔTm, listed per entry.
Metric Name: ΔTm

INSERT INTO measurements (molecule, metric_name, data_value) VALUES
  ('NC1=N/C(=C2/CCNC(=O)c3[nH]ccc32)C(=O)N1', 'ΔTm', '0.2 °C'),
  ('Cc1cc(C=C2C(=O)C=CC2=O)cc(C)c1O', 'ΔTm', '-0.4 °C'),
  ('N#CC(C#N)=Cc1ccc(O)c(O)c1', 'ΔTm', '0 °C'),
  ('Cn1cc(/C=C2/C(=O)Nc3ccc(S(N)(=O)=O)cc32)c2ccccc21', 'ΔTm', '0.5 °C'),
  ('CN(C)c1ccc(CC2C(=O)Nc3ccccc32)cc1 (stereo not drawn)', 'ΔTm', '-0.2 °C'),
  ('NC(=O)c1ccc(-c2nc(-c3ccc4c(c3)OCCO4)c(-c3ccccn3)[nH]2)cc1', 'ΔTm', '1 °C'),
  ('Nc1nc(Nc2ccc(S(N)(=O)=O)cc2)nn1C(=S)Nc1c(F)cccc1F', 'ΔTm', '2 °C'),
  ('O=C1Nc2ccc(S(=O)(=O)O)cc2/C1=C1/Nc2ccccc2/C1=N\O', 'ΔTm', '2 °C'),
  ('C[S+]([O-])c1ccc(CSc2nc(-c3ccc(F)cc3)c(-c3ccncc3)[nH]2)cc1 (stereo not drawn)', 'ΔTm', '0 °C'),
  ('O=C(O)Cc1ccc(O)c([N+](=O)[O-])c1', 'ΔTm', '0.6 °C'),
  ('O=c1ccc2ccc(O)c(O)c2o1', 'ΔTm', '0 °C'),
  ('O=c1cc(N2CCOCC2)oc2c1ccc1ccccc12', 'ΔTm', '0.1 °C'),
  ('Nc1nccc(-c2c(-c3ccc(F)cc3)ncn2C2CCNCC2)n1', 'ΔTm', '0.3 °C');

* * *

Reported values: ΔTm for Dual specificity mitogen-activated protein kinase kinase 2 (Homo sapiens, UniProt P36507), one per item.
Metric Name: ΔTm (°C)

INSERT INTO measurements (molecule, metric_name, data_value) VALUES
  ('O=C1Nc2ccc(I)cc2/C1=C1/Nc2ccccc2/C1=N\O', 'ΔTm', 6.4),
  ('Cc1ccc(NC(=O)c2ccc(CN3CCN(C)CC3)cc2)cc1Nc1nccc(-c2cccnc2)n1', 'ΔTm', 0.3),
  ('O=c1ccc2ccc(O)c(O)c2o1 [DAPHNETIN]', 'ΔTm', -0.3),
  ('Cn1cc(C2=C(c3cn(CCCSC(=N)N)c4ccccc34)C(=O)NC2=O)c2ccccc21', 'ΔTm', 0.9),
  ('N#C/C(=C\c1ccc(O)c(O)c1)C(=O)NCc1ccccc1', 'ΔTm', 0.2),
  ('CCOc1cc2ncnc(Nc3cccc(Br)c3)c2cc1OCC', 'ΔTm', 0.8),
  ('CC(C)(C)n1nc(-c2cccc3ccccc23)c2c(N)ncnc21', 'ΔTm', 3.2),
  ('NC1=NC(=O)/C(=C2\CCNC(=O)c3[nH]c(Br)cc32)N1 [HYMENIALDISINE]', 'ΔTm', 2);

* * *

Reported values: ΔTm for Serine/threonine-protein kinase PAK 5 (Homo sapiens) (UniProt Q9P286), one per item.
Metric Name: ΔTm (°C)

INSERT INTO results (molecular_string, data_value) VALUES
  ('Nc1n[nH]c2nc3ccccc3nc12', 0.2),
  ('O=c1c(-c2ccc(O)cc2)coc2cc(O)cc(O)c12', 0.2),
  ('CC(C)(C)n1nc(-c2cccc3ccccc23)c2c(N)ncnc21', 1),
  ('COc1ccc2c(c1)/C(=C/c1cnc[nH]1)C(=O)N2', 1.2);

* * *

# Measured On: Calcium/calmodulin-dependent protein kinase type II subunit gamma (Homo sapiens)
Metric Name: ΔTm (°C)

INSERT INTO measurements (compound, units_symbol, data_value) VALUES
  ('O=C(O)/C=C/c1cc(CO)ccc1CO', '°C', 0.1),
  ('COc1ccc2c(c[n+](C)c3c4cc5c(cc4ccc23)OCO5)c1OC [CHELERYTHRINE CHLORIDE]', '°C', -0.2),
  ('O=c1sn(Cc2ccccc2)c(=S)n1Cc1ccccc1', '°C', 0.4),
  ('COc1ccc(Cl)cc1NC(=O)Nc1cc(C)nc2ccccc12', '°C', -0.5),
  ('c1ccc(-c2n[nH]c3c2oc2ccccc23)cc1', '°C', 0.4),
  ('Oc1cc(O)cc(/C=C/c2ccc(O)c(O)c2)c1', '°C', 0.2),
  ('CC(C)n1cnc2/c(=N/c3cccc(Cl)c3)nc(NCCO)[nH]c21', '°C', 1.1),
  ('O=C1Nc2ccc(I)cc2/C1=C1/Nc2ccccc2/C1=N\O', '°C', 5.4),
  ('CSc1nc(-c2ccc(F)cc2)c(-c2ccnc(NC(C)c3ccccc3)c2)[nH]1 (racemic)', '°C', -0.3);
